Target: T1, hCMV gB protein (recombinant glycoprotein B) (human cytomegalovirus, UniProt P06473 32-750)
T1 construct: also called recombinant gB
T1 sequence (P06473 32-750 limits assumed): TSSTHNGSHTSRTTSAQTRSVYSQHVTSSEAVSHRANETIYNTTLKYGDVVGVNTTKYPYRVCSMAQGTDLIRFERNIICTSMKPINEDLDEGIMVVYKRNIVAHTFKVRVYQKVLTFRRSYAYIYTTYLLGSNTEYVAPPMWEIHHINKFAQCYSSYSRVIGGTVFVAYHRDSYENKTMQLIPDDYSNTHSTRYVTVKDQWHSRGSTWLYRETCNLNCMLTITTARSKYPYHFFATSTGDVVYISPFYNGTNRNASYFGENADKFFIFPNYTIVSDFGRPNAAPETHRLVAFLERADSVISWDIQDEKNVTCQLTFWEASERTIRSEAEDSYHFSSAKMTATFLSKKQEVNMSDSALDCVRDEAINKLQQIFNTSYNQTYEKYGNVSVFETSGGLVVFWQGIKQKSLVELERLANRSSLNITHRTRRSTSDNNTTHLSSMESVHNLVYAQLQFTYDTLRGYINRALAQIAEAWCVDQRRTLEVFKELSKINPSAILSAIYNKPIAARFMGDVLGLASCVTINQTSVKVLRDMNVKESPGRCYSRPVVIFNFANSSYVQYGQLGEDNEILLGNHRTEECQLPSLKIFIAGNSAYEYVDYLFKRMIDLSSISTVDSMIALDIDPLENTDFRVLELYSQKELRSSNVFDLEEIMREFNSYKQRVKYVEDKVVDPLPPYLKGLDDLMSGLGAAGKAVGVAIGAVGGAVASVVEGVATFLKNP
Test: SPR (Biacore T100), gB amine-coupled to CM5 chip, Fab as analyte, 1:1 Langmuir fit
koff by entry:
Report the value in s⁻¹ with no unit label.

Ab-04 Fab fragment (Fab, V domains shown, also called anti-gB Fab Ab-04) VH: QVHLVQSGAEVRKPGASVKVSCKASGYTFTDYYLNWVRQAPGQGLEWMGSINPNTGGTKYAQKFQGRVTMTRDTSIRAAYMELSSLRSDDTAVYYCARDGAKTMTTSGLSLLYYYDVMDVWGQGTLVTVSS VL: QSVLTQPPSVSAAPGQKVTISCSGSSSNIGKNYVSWYQQLPGTAPKLLIDDNNKRPSGIPDRFSGSKSGTSATLGITGLQTGDEADYYCATWDSSLGVVFGGGTKVTVL : 0.00012

// query koff value for entry Ab-02 Fab fragment (Fab, V domains shown, also called anti-gB Fab Ab-02) VH: QVQLVQPGAEVKKPGASVKVSCKASGFTLSDHYLVWVRQAPGQGFEWMGWINPQSGGTGYAQKFQGRVTMTRDSSSNTAFMDLSKLTSDDTAVYFCARDGAKTVSNSGLGLLYYHSRLDAWGQGTLVTVSS VL: QSVLTQPPSVSAAPGQRVTISCSGSRSNIGKNYVSWYQQPPGTAPKLLIFDNNKRPSGIPDRFSGSKSGTSATLAISGLQAADEADYYCGTWDSSLSVVFGGGTKVTVL
0.00013
